Test system: HOP-18 NSCLC
Experiment: NCI tumour cell line growth inhibition, 48 h
# Lookup of reported log10(TGI) keyed by entry
test_readout: log10(TGI) (log10 of the value in µM)

# molecule, log10(TGI)
measured = [
    ("C=C(c1ccccc1)[C@@]1(O)CC[C@@H]1N(CC#N)Cc1ccccc1", 1.45),
    ("O=C1C(=Cc2c(O)cc(O)cc2O)C(=O)c2ccccc21", 1.77),
    ("CN(C)CC/[N+]([O-])=C(/c1ccccc1)C12CC3CC(CC(C3)C1)C2", 1.55),
    ("S=P(N1CC1)(N1CC1)N1CC1", 2.81),
    ("CCN1CCC(O)(c2ccc(Cl)cc2)C(C(=O)c2ccc(Cl)cc2)C1 (configuration not stated)", 1.98),
]

* * *

System: DMS 114 small cell lung
Assay: NCI tumour cell line growth inhibition, 48 h

# molecule, TGI
data = [
    ("CC(=O)C1=C(O)CC2CC3c4[nH]c5ccccc5c4CCN3CC2C1 (stereo not given)", "> 100 µM"),
    ("CCOC(=O)c1[nH]c(COC(C)=O)c2c1CCCCCCCCCC2", "> 100 µM"),
    ("CC(C)(c1ccccc1)c1ccc(OC#N)cc1", "> 53.9 µM"),
    ("NC(N)=NS(=O)(=O)c1ccc(NCCc2c3ccccc3nc3ccccc23)cc1", "> 100 µM"),
    ("COc1ccc(-c2cc3[nH]nc(N)c3c(=O)o2)cc1", "> 100 µM"),
    ("CCCCCCCCCCCCCCCCCCN(C)CC(COP(=O)([O-])OCC[N+](C)(C)C)OC (stereo not given)", "20.5 µM"),
    ("COc1cc2c(cc1OC)/C(=C\\c1ccccc1N)C(=O)OC2", "34.7 µM"),
    ("CCN(CC)C(=O)C(C)n1cc(C)c(=O)[nH]c1=O (stereo not given)", "> 100 µM"),
    ("CC(=O)OCC1OC(n2c(-c3ccc(C)cc3)cc(-c3ccccc3)c(C#N)c2=O)C(OC(C)=O)C(OC(C)=O)C1OC(C)=O (stereo not given)", "> 100 µM"),
    ("Cc1cc(Cl)ccc1NC(=O)CC1SC(=Nc2ccccc2Cl)NC1=O (stereo not given)", "67.5 µM"),
]

* * *

Test system: CAKI-1 renal
Assay: NCI tumour cell line growth inhibition, 48 h
Recorded TGI for the following compounds
test_readout: TGI (µM)

# compound, inequality_symbol, result
records = [
    ("C#CCOc1cccc(Nc2ncnc3cc(NC(=O)CCl)ccc23)c1", "=", 15),
    ("Cc1cc2c([nH]c3ccccc32)c2c1OC(C)(C)C1C3CC(C)(C)Oc4c(C)cc5c6ccccc6n(c5c43)C21 (stereo not given)", ">", 100),
    ("CCOC(=O)c1[nH]c(COC(C)=O)c2c1CCCCCCCCCC2", ">", 100),
    ("Cc1ccc(S(=O)(=O)NNCNC(=O)c2ccccc2)cc1", ">", 100),
    ("OC(c1cc(C23CC4CC(CC(C4)C2)C3)nc2c(Cl)cc(Cl)cc12)C1CCCCN1 (stereo not given)", "=", 3.24),
]

* * *

System: MDA-MB-231 breast
Assay: NCI tumour cell line growth inhibition, 48 h
Entries and their measured TGI follow.

# compound, system, inequality_symbol, TGI [µM]
records = [
    ("Cc1cc(=O)oc2c(CNC(Cc3ccccc3)C(=O)O)c(O)ccc12 (stereo unspecified)", "MDA-MB-231 breast", ">", 100),
    ("COC(=O)c1ccccc1C1CN=NC12Cc1cc(C)ccc1C2=O (stereo unspecified)", "MDA-MB-231 breast", ">", 100),
    ("O=C(NNC(=S)NC1CCCCC1)c1csc(NC(=S)NC2CCCCC2)n1", "MDA-MB-231 breast", "=", 45.1),
    ("C[C@@H]1CC[C@@H]2[C@@H](C1)O[C@@H]([C@H](C)OCc1ccccc1)SC2(C)C", "MDA-MB-231 breast", "=", 40.1),
    ("O=C(O)CN1C(=O)C(Cc2ccc(O)cc2)N=C(c2cccc(O)c2)c2ccccc21 (stereo unspecified)", "MDA-MB-231 breast", ">", 100),
    ("CC(C(O)c1ccccc1)C(O)(C(F)(F)F)C(F)(F)F (stereo unspecified)", "MDA-MB-231 breast", ">", 100),
    ("OCCNCNc1nc(NCNCCO)nc(N(CNCCO)CNCCO)n1", "MDA-MB-231 breast", "=", 52.7),
    ("O=C(Nc1nc(C23CC4CC(CC(C4)C2)C3)cs1)c1cc2ccccc2oc1=O", "MDA-MB-231 breast", ">", 100),
    ("COc1ccc(-c2ccc(-c3ccc(C(=N)N)o3)o2)cc1", "MDA-MB-231 breast", "=", 4.28),
    ("NCCCNCCCCNC(=O)C(O)NC(=O)CCCCCCN=C(N)N (stereo unspecified)", "MDA-MB-231 breast", ">", 5000),
    ("C=C1CC2(OC1=O)C(=O)Nc1ccccc12 (stereo unspecified)", "MDA-MB-231 breast", "=", 17),
]
